system: Fibroblast; assay: Multiplex assay against human fibroblast; type: toxicity, cell-based; conditions: 12 h, 1 µM, compound concentration 1 uM, replicate 2
READOUT NAME: Population Pyknosed Nuclei (%)

[[record]]
molecule = "CCn1c(-c2nonc2N)nc2cnc(Oc3cccc(NC(=O)c4ccc(OCCN5CCOCC5)cc4)c3)cc21 [GSK-269962A]"
unit_of_measure = "%"
readout_number = 7

[[record]]
molecule = "COc1cc2c(Nc3ccc(NC(=O)c4ccccc4)cc3)ncnc2cc1OCCCN1CCOCC1"
unit_of_measure = "%"
readout_number = 8

[[record]]
molecule = "CCc1cc2c(cc1CC)CC(NC[C@H](O)c1ccc(O)c3[nH]c(=O)ccc13)C2"
unit_of_measure = "%"
readout_number = 4

[[record]]
molecule = "Cc1cc2c(cc1N1C(=O)c3cccc4c(CCCO)ccc(c34)C1=O)n(C)c(=O)n2C"
unit_of_measure = "%"
readout_number = 3

[[record]]
molecule = "CN(C)C/C=C/C(=O)Nc1cc2c(Nc3ccc(F)c(Cl)c3)ncnc2cc1O[C@H]1CCOC1.O=C(O)/C=C\\C(=O)O.O=C(O)/C=C\\C(=O)O [AFATINIB DIMALEATE]"
unit_of_measure = "%"
readout_number = 18

[[record]]
molecule = "COc1ccc(NS(=O)(=O)c2sc3ccc(Cl)cc3c2C)cc1N1CCNCC1.Cl"
unit_of_measure = "%"
readout_number = 16

[[record]]
molecule = "Nc1ccc(C(=O)Nc2cccc(-c3nc(N4CCOCC4)c4oc5ncccc5c4n3)c2)cn1"
unit_of_measure = "%"
readout_number = 17

[[record]]
molecule = "Cc1cn(-c2cc(NC(=O)c3ccc4c(c3)CN(c3cncnc3)C[C@@H]4C)cc(C(F)(F)F)c2)cn1"
unit_of_measure = "%"
readout_number = 10

